# target.entity: C-Raf FL (full length CRAF with Y340E and Y341E activating mutations, co-expressed with h14-3-3 zeta) (Homo sapiens (Human), UniProt P04049, Y340E/Y341E)
# Sequence (P04049 whole entry Y340E/Y341E): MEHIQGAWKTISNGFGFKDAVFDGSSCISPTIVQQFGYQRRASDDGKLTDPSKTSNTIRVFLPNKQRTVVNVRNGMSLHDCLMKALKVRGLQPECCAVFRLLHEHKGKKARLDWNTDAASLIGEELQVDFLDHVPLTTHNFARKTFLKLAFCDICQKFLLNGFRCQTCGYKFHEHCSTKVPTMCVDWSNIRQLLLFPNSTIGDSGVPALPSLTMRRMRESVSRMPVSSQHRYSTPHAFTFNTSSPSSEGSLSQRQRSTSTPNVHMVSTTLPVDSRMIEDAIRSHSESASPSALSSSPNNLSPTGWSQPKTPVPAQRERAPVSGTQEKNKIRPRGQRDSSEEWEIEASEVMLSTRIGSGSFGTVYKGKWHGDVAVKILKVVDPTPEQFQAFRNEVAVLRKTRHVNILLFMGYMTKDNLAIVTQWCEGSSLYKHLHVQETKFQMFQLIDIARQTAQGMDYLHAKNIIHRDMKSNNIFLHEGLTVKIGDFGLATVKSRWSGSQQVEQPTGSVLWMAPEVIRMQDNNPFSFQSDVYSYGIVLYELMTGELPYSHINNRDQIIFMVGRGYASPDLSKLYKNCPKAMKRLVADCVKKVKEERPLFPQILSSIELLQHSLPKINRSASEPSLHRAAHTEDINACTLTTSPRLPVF
# Sequence (P63104 whole entry partner): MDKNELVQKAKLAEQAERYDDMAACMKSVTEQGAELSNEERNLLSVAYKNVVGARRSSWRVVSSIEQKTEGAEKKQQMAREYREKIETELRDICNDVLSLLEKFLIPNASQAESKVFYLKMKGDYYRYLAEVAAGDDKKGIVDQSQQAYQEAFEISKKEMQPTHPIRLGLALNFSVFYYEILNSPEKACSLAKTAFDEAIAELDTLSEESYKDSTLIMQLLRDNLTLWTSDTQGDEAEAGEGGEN
# method.notes: In vitro Raf activity determination, AlphaScreen p-MEK readout, c-Raf (C-Raf FL)
# conditions: c-Raf approximately 4 nM, ATP 1 μM, pre-incubation 60 minutes, reaction 1 hour
pIC50: −log10 of the molar value.
Measured pIC50, listed per entry.

{"columns": ["compound", "pIC50"],
 "data": [
  ["COC1CC2COCCN2c2cc(-c3cc(NC(=O)c4ccnc(C(C)(F)F)c4)ccc3C)cnc21 (stereo not shown)", 11.09],
  ["Cc1ccc(NC(=O)c2ccnc(C(F)(F)F)c2)cc1-c1cnc2c(c1)N1CCOC[C@H]1C[C@@H]2O (racemic) [Example 101]", 10.59],
  ["Cc1ccc(NC(=O)c2cc(N)nc(C(F)(F)F)c2)cc1-c1ccc2c(c1)N1CCOC[C@H]1[C@](F)(CO)C2", 8.77],
  ["CCN1C(=O)C2CCOCCC2c2cc(-c3cc(NC(=O)c4ccnc(C(F)(F)F)c4)ccc3C)cnc21 (stereo not shown) [Example 246]", 9.70]
]}

These entries and their values trace back to patent US10377770B2.
